System: HL-60
Test: NCI tumour cell line growth inhibition, 48 h
Calls of active or inactive are those of the source. No stated cut-off is given here; in the data, active = GI50 up to about 1.1 µM and inactive = higher. Where a SMILES comes first, the peptide text is derived from it. [ ]: non-standard residue; d: D form. The star is where a group is joined. ξ: configuration not given here. NMeF = CN[CH](Cc1ccccc1)C(=O)O; ξNMe2Val = CC(C)C(C(=O)*)N(C)C; NMeV = CN[CH](C(=O)O)C(C)C; OtBu = CC(C)(C)O*
Please provide measured GI50 for the entries that follow.

According to the records, this compound O=c1cc(NNc2ccc3ccccc3c2)[nH]c(=S)[nH]1 displays GI50 of 24.7 µM (inactive)

According to the records, this compound O=C(CSCC(=O)N/N=C/c1cccc(O)c1)N/N=C/c1cccc(O)c1 displays GI50 of > 100 µM (inactive)

According to the records, this compound O=C1c2ccccc2C2C1N2C(=O)C(F)(F)F (centres undefined) displays GI50 of 24.7 µM (inactive)

According to the records, this compound CN(C)CCCNC(=O)c1cc(NC(=O)c2cc(NC(=O)[C@H]3C[C@@H]3C(=O)Nc3cc(C(=O)Nc4cc(C(=O)NCCCN(C)C)n(C)c4)n(C)c3)cn2C)cn1C displays GI50 of > 100 µM (inactive)

According to the records, this compound CCCCCCCCCCCCC1NC(=N)NC2(CCCO2)C1C(=O)OC (centres undefined) displays GI50 of 1.53 µM (inactive)

According to the records, this compound C=C1C(=O)OC2/C=C(\C)CC/C=C(\C)CC(OC(=O)/C(=C/CO)CO)[C@@H]12 (some centres undefined) displays GI50 of 2.72 µM (inactive)

According to the records, this compound NC(=O)CN1C=CCC(C(N)=O)=C1 [CARICOTAMIDE] displays GI50 of > 100 µM (inactive)

According to the records, this compound NC(=O)NC1NC(=O)NC1=O (centres undefined) displays GI50 of > 100 µM (inactive)

According to the records, this compound Cc1ccccc1NC(=O)Cc1csc(N/N=C2\C(=O)Nc3ccccc32)n1 displays GI50 of 22.3 µM (inactive)

According to the records, this compound O=c1c2ccccc2n2c(-c3ccccc3O)nnc2n1-c1ccccc1 displays GI50 of > 100 µM (inactive)

According to the records, this compound CNC(=O)c1cc2nc3ccccc3c(=O)n2c2ccccc12 displays GI50 of > 10 µM (inactive)

According to the records, this compound COc1ccc2c3c([nH]c2c1[N+](=O)[O-])C(C)N(Cc1ccc([N+](=O)[O-])cc1)CC3 (centres undefined) displays GI50 of 3.22 µM (inactive)

According to the records, this compound Cc1c2cc[n+](COC(=O)c3ccccc3)cc2c(C)c2c1[nH]c1ccccc12 displays GI50 of 1.1 µM (active)

According to the records, this compound CCCCCn1cc2c3c(cccc31)C1C=C(C)CN(C)[C@@H]1C2.Cc1ccc(C(=O)OC(C(=O)O)C(OC(=O)c2ccc(C)cc2)C(=O)O)cc1 (centres undefined) displays GI50 of 1.35 µM (inactive)

According to the records, this compound Cc1ccc(S(=O)(=O)N2CCCCC2CCO)cc1 (centres undefined) displays GI50 of > 100 µM (inactive)

According to the records, this compound COC1=C2C[C@@H](C)C[C@@H](OC)[C@@H](O)[C@H](C)/C=C(\C)[C@@H](OC(N)=O)[C@H](OC)/C=C\C=C(/C)C(=O)NC(=CC1=O)C2=O displays GI50 of 0.0132 µM (active)

According to the records, this compound CCCCCCCCCC(=O)OCC1OC(n2cc(F)c(=O)[nH]c2=O)C(N)C(OC(=O)CCCCCCCCC)C1O (centres undefined) displays GI50 of 23.3 µM (inactive)

According to the records, this compound COc1cc(C2c3cc4c(cc3OC(NNC(N)=O)C2C)OCO4)cc(OC)c1O (centres undefined) displays GI50 of 0.867 µM (active)

According to the records, this compound CC(=O)Nc1ccc(C(=O)N2N=C(C)/C(=C/c3cccc([N+](=O)[O-])c3)C2=O)cc1 displays GI50 of > 100 µM (inactive)

According to the records, this compound COC(=O)CC1N/C(=N\C#N)N(CCc2c[nH]c3ccccc23)C1=O (centres undefined) displays GI50 of > 100 µM (inactive)

According to the records, this compound O=C(Cc1ccccc1)NNc1nc(NNC(=O)c2ccncc2)nc(Nc2cccc(Cl)c2)n1 displays GI50 of > 10 µM (inactive)

According to the records, this compound O=C1c2ccccc2-c2nc(-c3cccc([N+](=O)[O-])c3)nnc21 displays GI50 of 3.07 µM (inactive)

According to the records, this compound COc1ccc(CC(=O)N2CCC3(C)CC(=O)CC=C23)cc1OC (centres undefined) displays GI50 of > 100 µM (inactive)

According to the records, this compound c1ccc(SC(CCCCOC2CCCCO2)Sc2ccccc2)cc1 (centres undefined) displays GI50 of 20.4 µM (inactive)

According to the records, this compound CC1CCC(=O)C(C(=O)CC2CC(=O)N(C)C(=O)C2)C1 (centres undefined) displays GI50 of > 100 µM (inactive)

According to the records, this compound CC(C)C(C(=O)N(C)C(Cc1ccccc1)C(=O)N(C)C(C(=O)N(C)C(C(=O)N1CCCC1C(=O)OC(C)(C)C)C(C)C)C(C)C)N(C)C (centres undefined) (ξNMe2Val-[NMeF][NMeV][NMeV]P-OtBu; configuration not given here) displays GI50 of 37.2 µM (inactive)

According to the records, this compound CC(C)NC(=O)OCc1c(COC(=O)NC(C)C)c(-c2ccc[n+](COC(=O)C(C)(C)C)c2)n2c1CCC2 displays GI50 of > 53.2 µM (inactive)

According to the records, this compound CC(C)CC1NC(=O)CCC(NC(=O)C(Cc2ccc(O)cc2)NC(=O)OCc2ccccc2)C(=O)NC(Cc2ccccc2)C(=O)NC(Cc2ccccc2)NC1=O (centres undefined) displays GI50 of > 100 µM (inactive)

According to the records, this compound O=C(c1ccccc1)C(Nc1ccc2ccccc2c1)c1ccccc1 (centres undefined) displays GI50 of 13.1 µM (inactive)
